# experiment: MultiTox-Fluor Cytotoxicity Assay - LYMP1-002 - Dead Cells (AID 960); further: nearly all actives have a fitted effect of over 60% in size
# test parameters: LYMP1-002 lymphoblastoid cells, dead-cell protease fluorescence; series mostly up to 46.1 µM
Records with an inconclusive call do not appear. The source made the active and inactive calls. The call rests on the fitted dose curve; in most records, active means well fitted cell-killing curve with a large enough effect; inconclusive means small, poorly fitted or top-dose-only effect, or effect the other way; inactive means no such curve, though single readings can be large or run the other way.
Classes used: Y for active, N for inactive

>  <compound>
CC(C)(C)OO

>  <qualitative label>
N

$$$$
>  <compound>
CCCCCCCC(=O)Cl

>  <qualitative label>
N

$$$$
>  <compound>
C=CCc1ccc2c(c1)OCO2

>  <qualitative label>
N

$$$$
>  <compound>
Clc1nc(Cl)nc(Cl)n1

>  <qualitative label>
N

$$$$
>  <compound>
c1ccc(OP(Oc2ccccc2)Oc2ccccc2)cc1

>  <qualitative label>
N

$$$$
>  <compound>
Cc1ccc2ccccc2c1

>  <qualitative label>
N

$$$$
>  <compound>
C=CCOC(C)=O

>  <qualitative label>
N

$$$$
>  <compound>
O=C(Cl)C(Cl)(Cl)Cl

>  <qualitative label>
N

$$$$
>  <compound>
c1nc[nH]n1

>  <qualitative label>
N

$$$$
>  <compound>
Cc1ccc([N+](=O)[O-])cc1C

>  <qualitative label>
N

$$$$
>  <compound>
COP(=S)(OC)Oc1ccc([N+](=O)[O-])cc1

>  <qualitative label>
N

$$$$
>  <compound>
C=CC(N)=O

>  <qualitative label>
N

$$$$
>  <compound>
O=[N+]([O-])c1ccc(Cl)c(Cl)c1

>  <qualitative label>
N

$$$$
>  <compound>
BrCCBr

>  <qualitative label>
N

$$$$
>  <compound>
C[C@]12CC[C@H]3[C@@H](CCC4=CC(=O)CC[C@@]43C)[C@@H]1CC[C@@H]2O

>  <qualitative label>
N

$$$$
>  <compound>
CC(C)(OO)c1ccccc1

>  <qualitative label>
N

$$$$
>  <compound>
CCOc1ccc(N)cc1

>  <qualitative label>
N

$$$$
>  <compound>
ClCBr

>  <qualitative label>
N

$$$$
>  <compound>
CC(Cl)Cl

>  <qualitative label>
N

$$$$
>  <compound>
CCOP(=S)(OCC)SCSC(C)(C)C

>  <qualitative label>
N

$$$$
>  <compound>
CCCCOCCOP(=O)(OCCOCCCC)OCCOCCCC

>  <qualitative label>
N

$$$$
>  <compound>
C=CC1CC=CCC1 (stereo not given)

>  <qualitative label>
N

$$$$
>  <compound>
O=C1C(Cl)=C(Cl)C(=O)C(Cl)=C1Cl

>  <qualitative label>
Y

$$$$
>  <compound>
N#CCCCl

>  <qualitative label>
N

$$$$
>  <compound>
CC(C)(C)OOC(C)(C)C

>  <qualitative label>
N

$$$$

* * *

# experiment: NCATS anti-infectives library activity on HEK293 viability as a counter-qHTS vs the C. elegans viability qHTS (AID 1745854);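 further: HEK293 cells exposed to compounds for 24 hr before the viability read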
# test parameters: HEK293 viability counter-screen; series mostly up to 41.8 µM
Records with an inconclusive call do not appear. The source made the active and inactive calls. Calls follow the shape of the dose curve; as a rule, active = well fitted cell-killing curve with a large enough effect; inconclusive = small, poorly fitted or top-dose-only effect; inactive = flat fitted curve, though single readings scatter.
Classes used: Y (active), N (inactive)

>  <compound>
C[C@@H](COc1ccc(Oc2ccccc2)cc1)Oc1ccccn1

>  <qualitative label>
N

$$$$
>  <compound>
C[C@@H](N)C(=O)N[C@@H](CO)C(=O)N[C@H](C(=O)N[C@H](C(=O)N[C@H](C(=O)N[C@@H](CC(N)=O)C(=O)N[C@@H](Cc1ccc(O)cc1)C(=O)N[C@H](C(N)=O)[C@@H](C)O)[C@@H](C)O)[C@@H](C)O)[C@@H](C)O

>  <qualitative label>
N

$$$$
>  <compound>
[Hg+][c]1ccccc1

>  <qualitative label>
Y

$$$$
>  <compound>
CC(C)=CCC[C@](C)(O)[C@H]1CC[C@@]2(C)[C@H]1[C@@H](O)CC1[C@@]3(C)CC[C@@H](O[C@@H]4O[C@H](CO)[C@@H](O)[C@H](O)[C@H]4O)C(C)(C)C3CC[C@]12C (stereo not given in full)

>  <qualitative label>
N

$$$$
>  <compound>
CC[C@H]1CN2CCc3cc(OC)c(OC)cc3[C@@H]2C[C@@H]1C[C@H]1NCCc2cc(O)c(OC)cc21

>  <qualitative label>
N

$$$$

* * *

# experiment: qHTS for ATAD5 Antagonist screened against the NCATS CANVASS Library (AID 1347370); further: nearly all actives have a fitted effect of over 65% in size
# test parameters: HEK293T-ATAD5-luc, 5-FUrd stimulated, luminescence, 16 h; series mostly up to 46.1 µM
# Text: Natural products and their derivatives continue to be wellsprings of nascent therapeutic potential. […] To address this issue, the Canvass library of natural products was assembled (https://tripod.nih.gov/canvass), in collaboration with academic and industry researchers, for quantitative high-throughput screening (qHTS) across a diverse set of cell-based and biochemical assays. […] Luminescence intensity is proportional to ATAD5 expression. […]
Results filed as inconclusive are left out. The source made the active and inactive calls. The call rests on the fitted dose curve; in most records, active means well fitted inhibition curve with a large enough effect; inconclusive means small, poorly fitted or top-dose-only effect; inactive means no such curve, though single readings can be large or run the other way.
Classes used: T for active, F for inactive

>  <compound>
CC[C@H]1CN2CCc3c([nH]c4cccc(OC)c34)[C@@H]2C[C@@H]1/C(=C\OC)C(=O)OC

>  <qualitative label>
F

$$$$
>  <compound>
O[C@H]1C=C[C@@]23CCN(Cc4cc5c(cc42)OCO5)[C@@H]3C1

>  <qualitative label>
F

$$$$
>  <compound>
CO[C@H]([C@@H](C)[C@H]1O[C@]1(C)C[C@H](C)/C=C/C=C(\C)[C@H]1O[C@@H](CC(=O)O)CC[C@@H]1C)[C@@H](C)O

>  <qualitative label>
F

$$$$
>  <compound>
C1=C2CCCN[C@H]2C2CC1[C@H]1CCCCN1C2 (stereo partly drawn)

>  <qualitative label>
F

$$$$
>  <compound>
CO[C@@H](/C=C/CC/C=C/C(=O)O)[C@@H](O)[C@H](C)/C=C(\C)[C@H](O)[C@H](C)C(=O)CCCC1CC(=O)NC(=O)C1

>  <qualitative label>
F

$$$$
>  <compound>
CO[C@@]12c3c(C)cc(O)c4c(=O)occ(c34)C(=O)[C@@H]1[C@]13COC(=O)c4c(O)cc(C)c(c41)C(=O)[C@H]2[C@@H]3OC(C)=O

>  <qualitative label>
F

$$$$
>  <compound>
C/C(=C\[C@H](C)C(=O)C[C@H](O)CC1CC(=O)NC(=O)C1)[C@@H]1OC(=O)/C=C/CC/C=C/C=C/[C@@H]1C

>  <qualitative label>
T

$$$$
>  <compound>
C=CC(C)(C)[C@@]12C[C@H]3C(=O)N/C(=C\c4cnc[nH]4)C(=O)N3[C@@H]1Nc1ccccc12

>  <qualitative label>
F

$$$$

* * *

# experiment: Cytotoxicity counterscreen for inhibitors of SARS-CoV-2 cell entry (AID 1645845); further: nearly all actives have a fitted effect of over 50% in size
# test parameters: cell viability (SARS-CoV-2 entry assay cells); series mostly up to 57.1 µM
Results filed as inconclusive are left out. Activity calls are given as the source filed them. Calls come from the whole dose curve. Bridge positions count the residues as written; N and C are the ends. Square brackets hold non-standard residues; d marks the D form. Peptide text beside a SMILES is read from it. * marks the point of attachment. Benzoyl(4-tBu) = CC(C)(C)c1ccc(C(=O)*)cc1; Lys(Et2) = CCN(CC)CCCC[C@H](N)C(=O)O; X1 = CCC(C)C(N)C1=NC(C(=O)*)CS1; dOrn = NCCC[C@@H](N)C(=O)O
Classes used: active, inactive

>  <molecule>
CCC(=O)O[C@]1(C(=O)CO)CC[C@H]2[C@@H]3CCC4=CC(=O)CC[C@]4(C)[C@H]3CC[C@@]21C

>  <qualitative label>
inactive

$$$$
>  <molecule>
COc1ccc(CNc2nc(N3CCC[C@H]3CO)ncc2C(=O)NCc2ncccn2)cc1Cl

>  <qualitative label>
inactive

$$$$
>  <molecule>
CCO/N=C(\C(=O)N[C@@H]1C(=O)N2C(C(=O)O)=C(Sc3nc(-c4cc[n+](C)cc4)cs3)CS[C@H]12)c1nsc(NP(=O)(O)O)n1

>  <qualitative label>
inactive

$$$$
>  <molecule>
C[C@H]1C[C@H]2[C@H]3CCC4=CC(=O)C=C[C@]4(C)[C@@]3(F)[C@@H](O)C[C@]2(C)[C@@]1(OC(=O)c1ccccc1)C(=O)CO

>  <qualitative label>
inactive

$$$$
>  <molecule>
O=C(Nc1ccc(OC(F)(F)Cl)cc1)c1cnc(N2CC[C@@H](O)C2)c(-c2ccn[nH]2)c1

>  <qualitative label>
inactive

$$$$
>  <molecule>
O=C(NOCC(O)CO)c1ccc(F)c(F)c1Nc1ccc(I)cc1F (centres undefined)

>  <qualitative label>
inactive

$$$$
>  <molecule>
C=C(C)[C@@H]1CCC(C)=C[C@H]1c1c(O)cc(CCCCC)cc1O

>  <qualitative label>
inactive

$$$$
>  <molecule>
CCC(C(=O)O)[C@H]1CC[C@H](C)[C@H]([C@@H](C)[C@H](O)[C@H](C)C(=O)[C@H](CC)[C@H]2OC3(C=C[C@@H](O)[C@]4(CC[C@@](C)([C@H]5CC[C@](O)(CC)[C@H](C)O5)O4)O3)[C@H](C)C[C@@H]2C)O1 (some centres undefined)

>  <qualitative label>
active

$$$$
>  <molecule>
C[C@@H]1Cc2c([nH]c3ccccc23)[C@@H](c2c(F)cc(/C=C/C(=O)O)cc2F)N1CC(C)(C)F

>  <qualitative label>
inactive

$$$$
>  <molecule>
CO/N=C(/C(=O)N[C@@H]1C(=O)N2C(C(=O)OC(C)OC(C)=O)=C(COC(N)=O)CS[C@H]12)c1ccco1 (some centres undefined)

>  <qualitative label>
inactive

$$$$
>  <molecule>
C=CC1=C(C(=O)O)N2C(=O)[C@@H](NC(=O)/C(=N\OCC(=O)O)c3csc(N)n3)[C@H]2SC1

>  <qualitative label>
inactive

$$$$
>  <molecule>
CNC(=O)[C@H](Cc1c[nH]c2ccccc12)NC(=O)[C@@H](CC(=O)NO)CC(C)C

>  <qualitative label>
inactive

$$$$
>  <molecule>
CCC(C)CNCC(=O)N1CCc2sccc2C1c1cccc(C)n1 (centres undefined)

>  <qualitative label>
inactive

$$$$
>  <molecule>
CCCCCCCCCCCC(=O)OCN1C(=O)CCc2ccc(OCCCCN3CCN(c4cccc(Cl)c4Cl)CC3)cc21

>  <qualitative label>
inactive

$$$$
>  <molecule>
Cn1c(=O)cc(N2CCCC(N)C2)n(Cc2ccccc2C#N)c1=O (centres undefined)

>  <qualitative label>
inactive

$$$$
>  <molecule>
CC1(C)C2CCC1(C)C(O)C2 (centres undefined)

>  <qualitative label>
inactive

$$$$
>  <molecule>
CN(C)c1cccc(-c2c3c(=O)n(-c4ccccc4Cl)[nH]c3cc(=O)n2C)c1

>  <qualitative label>
inactive

$$$$
>  <molecule>
CC(=O)N[C@H]1CSSC[C@@H](C(N)=O)NC(=O)[C@H](C(C)C)NC(=O)[C@H](C)NC(=O)[C@H](Cc2cnc[nH]2)NC1=O

>  <qualitative label>
inactive

$$$$
>  <molecule>
CCCCC[C@H](O)/C=C/[C@H]1[C@H](O)CC(=O)[C@@H]1CCCCCCC(=O)O

>  <qualitative label>
inactive

$$$$
>  <molecule>
CCN(CC)CCCC[C@H](NC(=O)[C@H](CC(C)C)NC(=O)[C@H](C)NC(=O)[C@H](Cc1ccccc1)NC(=O)c1ccc(C(C)(C)C)cc1)C(=O)N[C@@H](CO)C(=O)OC ({Benzoyl(4-tBu)}-FAL[Lys(Et2)]S-OMe)

>  <qualitative label>
inactive

$$$$
>  <molecule>
CNCCN(C)Cc1cn[nH]c1-c1ccc(OC2CC(OCCC3CCOCC3)C2)cc1 (centres undefined)

>  <qualitative label>
inactive

$$$$
>  <molecule>
COc1ccccc1C(=O)Nc1cc2c(cc1N1CCCCC1)n(C)c(=O)n2C

>  <qualitative label>
inactive

$$$$
>  <molecule>
CN(C)CC(=O)O

>  <qualitative label>
inactive

$$$$
>  <molecule>
O=c1ccn([C@@H]2O[C@H](CO)[C@@H](O)[C@H]2O)c(=O)[nH]1

>  <qualitative label>
inactive

$$$$
>  <molecule>
CO[C@H]1C[C@@H]2CC[C@@H](C)[C@@](O)(O2)C(=O)C(=O)N2CCCC[C@H]2C(=O)O[C@H]([C@H](C)C[C@@H]2CC[C@@H](OCCO)[C@H](OC)C2)CC(=O)[C@H](C)/C=C(/C)[C@@H](O)[C@@H](OC)C(=O)[C@H](C)C[C@H](C)\C=C/C=C\C=C/1C

>  <qualitative label>
inactive

$$$$
>  <molecule>
CC[C@H]1C2C[C@H]3[C@@H]4N(C)c5ccccc5[C@@]45C[C@H](C2[C@H]5O)N3[C@@H]1O (some centres undefined)

>  <qualitative label>
inactive

$$$$
>  <molecule>
CCC(C)C(N)C1=NC(C(=O)N[C@@H](CC(C)C)C(=O)N[C@H](CCC(=O)O)C(=O)N[C@H](C(=O)N[C@H]2CCCCNC(=O)[C@H](CC(N)=O)NC(=O)[C@@H](CC(=O)O)NC(=O)[C@H](Cc3cnc[nH]3)NC(=O)[C@@H](Cc3ccccc3)NC(=O)[C@H]([C@@H](C)CC)NC(=O)[C@@H](CCCN)NC2=O)[C@@H](C)CC)CS1 (some centres undefined) (X1-L[dE]IK[dOrn]I[dF]H[dD]N; lactam 4-C)

>  <qualitative label>
inactive

$$$$
>  <molecule>
CC(C)CCC[C@@H](C)[C@H]1CC[C@H]2[C@@H]3CC=C4C[C@@H](O)CC[C@]4(C)[C@@H]3CC[C@]12C

>  <qualitative label>
inactive

$$$$
>  <molecule>
CC1Oc2cc(cnc2N)-c2c(nn(C)c2C#N)CN(C)C(=O)c2ccc(F)cc21 (centres undefined)

>  <qualitative label>
inactive

$$$$
